Biological target: T1, human transferrin receptor (hTfR) fused to EGFP, on CHO cells (human, UniProt P02786 1-760)
T1 construct: whole, on cells; also called human TfR; CHO-hTfR-EGFP; not shown: EGFP from pEGFP-C1 vector, fused to the N-terminal (intracellular) end of hTfR
T1 sequence (P02786 whole entry, the tested form may be a part): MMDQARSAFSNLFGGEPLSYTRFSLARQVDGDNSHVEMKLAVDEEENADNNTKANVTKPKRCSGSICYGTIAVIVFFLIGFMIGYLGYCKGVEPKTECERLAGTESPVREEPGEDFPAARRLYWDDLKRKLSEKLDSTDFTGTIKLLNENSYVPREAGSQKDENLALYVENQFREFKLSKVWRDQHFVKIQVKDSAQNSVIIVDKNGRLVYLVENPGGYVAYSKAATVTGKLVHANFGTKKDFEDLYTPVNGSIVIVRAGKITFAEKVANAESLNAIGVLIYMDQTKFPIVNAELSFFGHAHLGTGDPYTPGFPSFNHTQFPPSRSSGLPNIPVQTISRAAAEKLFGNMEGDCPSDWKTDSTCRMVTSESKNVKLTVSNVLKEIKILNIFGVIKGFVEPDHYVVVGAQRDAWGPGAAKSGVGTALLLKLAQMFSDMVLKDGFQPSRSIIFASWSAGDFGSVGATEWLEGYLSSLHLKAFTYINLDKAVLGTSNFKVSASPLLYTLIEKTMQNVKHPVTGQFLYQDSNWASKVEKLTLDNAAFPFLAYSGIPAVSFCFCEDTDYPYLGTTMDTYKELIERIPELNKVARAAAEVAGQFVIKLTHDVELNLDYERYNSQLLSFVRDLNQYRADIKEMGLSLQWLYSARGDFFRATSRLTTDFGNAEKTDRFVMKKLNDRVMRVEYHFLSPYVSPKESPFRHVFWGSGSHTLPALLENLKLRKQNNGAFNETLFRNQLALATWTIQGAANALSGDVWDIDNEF
Test: apparent Kd, flow cytometry, CHO cells
Provide the recorded pKd for the entries that follow.
One number for each entry, as −log10 of the molar value.

1) B8^V29 (VHH) VHH: EVQLVESGGGVVQPGGSLRLSCAASGEIFSINFMRWYRQAPGKQREWVAGFTRDGSTNYPDSAKGRFTISRDNAKNTVYLQIDSLKPEDTAVYYCYMADTWGQGTQVTVSS
8.05
2) B8^V34 (VHH) VHH: EVQLVESGGGVVQPGGSLRLSCAASGEIRSINFMRWYRQAPGKQREWVAGFTRDGSTNYPDIAKGRFTISRDNAKNTVYLQIDSLKPEDTAVYYCYMLDTWGQGTQVTVSS
7.89
3) B8^V35 (VHH) VHH: EVQLVESGGGVVQPGGSLRLSCAASGEIRSINFMRWYRQAPGKQREWVAGFTRDGSLNYPDSAKGRFTISRDNAKNTVYLQIDSLKPEDTAVYYCYMLDTWGKGTQVTVSS
8.15

Next binder, pKd to be filled in.
Let me know recorded pKd for B8^V25 (VHH) VHH: EVQLVESGGGVVQPGGSLRLSCAASGEIFSINFMRWYRQAPGKQREWVAAFTRDGSTNYPDSAKGRFTISRDNAKNTVYLQIDSLKPEDTAVYYCYMLDTWGQGTQVTVSS , thanks.
7.85
